Reported IC50 values for a set of molecules
- Test system: A549
- Test Summary: Cytotoxicity against human A549 cells
- Type: functional, cell-based
Express your answer in ng/mL, writing the number without its unit.

# example entries with known answers
* CC[C@]1(O)C[C@@H]2CN(CCc3c([nH]c4ccccc34)[C@@](C(=O)OC)(c3cc4c(cc3OC)N(C)[C@H]3[C@@](O)(C(=O)OC)[C@H](OC(C)=O)[C@]5(CC)C=CCN6CC[C@]43[C@@H]65)C2)C1.O=S(=O)(O)O [VINBLASTINE SULFATE] | 2
* COc1cccc2c1C(=O)c1c(O)c3c(c(O)c1C2=O)C[C@@](O)(C(=O)CO)C[C@@H]3O[C@H]1C[C@H](N)[C@H](O)[C@H](C)O1.Cl [DOXORUBICIN HYDROCHLORIDE] | 150
* COC(=O)[C@H]1[C@@H](O)[C@@]2(O)c3c(OC)cc(OC)cc3O[C@@]2(c2ccc(OC)cc2)[C@@H]1c1ccccc1 | 1

Inquiry: I'd like to know its IC50. The molecule in question is COc1ccc([C@@]23Oc4cc(OC)cc(OC)c4[C@]2(O)[C@H](O)[C@H](C(=O)N(C)C)[C@H]3c2ccccc2)cc1 [ROCAGLAMIDE]
Reply text: 6
